# ASSAY CONDITIONS: 323.15 K; 101.33 kPa; Liquid; Vibrating tube method
± gives the expanded uncertainty stated by the source.
READOUT: mass density

STRUCTURE SMILES STRING	READOUT	RESULT
CCCCCCCCCC	mass density	707.06 ± 1.4 kg/m3
CCCCCCC	mass density	658.19 ± 1.3 kg/m3

Reported mass density ( CCCCCCCCC ) = 694.3 ± 1.4 kg/m3

Reported mass density ( CCCCCCCC ) = 678.11 ± 1.4 kg/m3

---

Quick list: viscosity per entry.
# ASSAY CONDITIONS: 318.15 K; 101.33 kPa; Liquid; Falling or rolling sphere viscometry
Numbers after ± are expanded uncertainties.
The reply should consist of the numeric value with the unit placed after it.

STRUCTURE SMILES STRING	READOUT	RESULT
CCCCCCCCCC	viscosity	0.663 ± 0.066 mPa·s
CCCCCCCCC	viscosity	0.535 ± 0.054 mPa·s
CCCCCCC	viscosity	0.335 ± 0.034 mPa·s

Reported viscosity ( CCCCCCCC ) = 0.431 ± 0.043 mPa·s
